The measurements presented in this section are drawn from PubChem BioAssay AID1794845.

- MEASURED_ON: Metallo-beta-lactamase type 2 (Klebsiella pneumoniae) (UniProt C7C422)
- Sequence (C7C422 whole entry, looked up): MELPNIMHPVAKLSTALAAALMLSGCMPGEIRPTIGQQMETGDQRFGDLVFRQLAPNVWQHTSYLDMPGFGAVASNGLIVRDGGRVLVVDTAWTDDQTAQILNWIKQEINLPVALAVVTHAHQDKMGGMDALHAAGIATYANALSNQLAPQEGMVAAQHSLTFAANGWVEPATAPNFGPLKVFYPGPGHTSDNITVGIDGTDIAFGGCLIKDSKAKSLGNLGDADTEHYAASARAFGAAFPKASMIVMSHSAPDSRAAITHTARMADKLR
- EXPERIMENTAL_DETAILS: qHTS to identify inhibitors of the New Delhi Metallo-beta-lactamase (NDM): primary screen against the NCATS Gemini Collection
- SETUP_CONDITIONS: NDM-1 enzyme, meropenem hydrolysis, absorbance 300 nm; series mostly up to 38.4 µM
Screen size: about 6,900 compounds; fewer than 10 were called active. The list is a sample of the results.
MEASURED_QUANTITY: outcome

Example results:
1) COc1ccc(-c2cc(-c3ccncc3)cn3cncc23)cc1 = inactive
2) O=C1NCCOCCCN(S(=O)(=O)c2ccccc2)[C@H]2CCCC[C@@H]12 = inactive
3) Cn1cc(-c2ccc3c(n2)CN(Cc2ccc(F)cc2)C(=O)CO3)cn1 = inactive
4) COc1cccc(CCC(=O)N2CCC3(CC2)N=C(c2ccccc2)NO3)c1 = inactive
5) Cc1ccc(C(C(=O)O)N2CCC(C(=O)N3CCCC3)CC2)c(C)c1 (stereo not given) = inactive

// batch mode: one outcome value per listed entry
1. COc1cc(CC2(CCC(=O)N3CCC(Oc4cccc(F)c4)CC3)CCC(=O)N2)ccc1F (stereo not given)
2. Cc1cccc(C(=O)N2CC[C@H]3C(=O)NCCCCCCN(Cc4ccncc4)[C@@H]3C2)c1
3. COc1ccc(Cn2c3c(c(=O)n2Cc2ccccc2)CCN(C(=O)CCc2cccnc2)C3)cc1
4. CN1CCN(C(=O)c2cncc(N[C@H]3C[C@@H]4OCC[C@H]34)n2)CC1
5. CCOCCn1nc(C)cc1C(=O)N[C@H]1[C@H]2CCO[C@H]2[C@@H]1N(C)C

1: inactive; 2: inactive; 3: inactive; 4: inactive; 5: inactive

----------
- MEASURED_ON: Metallo-beta-lactamase type 2 (Klebsiella pneumoniae) (UniProt C7C422)
- EXPERIMENTAL_DETAILS: qHTS to identify inhibitors of the New Delhi Metallo-beta-lactamase (NDM): primary screen against the NCATS Gemini Collection
- SETUP_CONDITIONS: NDM-1 enzyme, meropenem hydrolysis, absorbance 300 nm; series mostly up to 38.4 µM
- Source text: Assay Submitter (PI): James Inglese Ph.D., Patricia Dranchak Ph.D., Mahesh Aitha Ph.D. Assay Development and Screening Technology Laboratory (ADST) National Center for Advancing Translational Sciences (NCATS), Rockville, MD National Institute of Health (NIH), Bethesda, Maryland The metallo-beta-lactamases (MBL) are a main antibiotic resistance mechanism evolved by bacteria. There is an urgent clinical need for MBL inhibitors to mitigate this growing threat. […]
Among all 6,900 compounds or so, fewer than 10 were called active. Not all results are given here.
MEASURED_QUANTITY: outcome

A selection of reference data follows.
1. Cc1nn(-c2ccccc2)c(C)c1Cc1nc(C(C)C)no1 = inactive
2. CCn1c(CO)nnc1C1CC(NC(=O)c2[nH]c3ccc(OC)cc3c2C)C1 (stereo unspecified) = inactive
3. O=C(CC1CCCC1)N1C[C@@H](CO)[C@@H]2Oc3ccc(Cl)cc3[C@@H]21 = inactive
4. CN(C)C[C@@H]1CN(Cc2ccncc2)C[C@H]1NC(=O)Cc1ccsc1 = inactive
5. CN1CCN([C@H]2[C@@H]3OC[C@@H](O3)[C@@H](NCc3ccc(-c4ccccc4)cc3)[C@@H]2O)CC1 = inactive
6. CCn1c(CN2CCN(c3nc4ccccc4s3)CC2)nnc1C1CC(N)C1 (stereo unspecified) = inactive
7. COCCN1C[C@@H]2[C@H](c3ccccc31)[C@@H](CO)[C@@H](c1ccccc1)N2C(=O)COC(C)=O = inactive
8. CCc1ccc(NC(=O)Cn2nc3n(c2=O)CCCC3)cc1 = inactive
9. COc1ccc(-c2nc(N3CCOCC3)cc3c2CN(Cc2ccccc2)C3=O)cn1 = inactive
10. O=S(=O)(c1cnc[nH]1)N1CCC(c2nc(CCOCC3CC3)no2)C1 (stereo unspecified) = inactive

The following compounds each have a reported value; give each one's outcome.
1. COCC(=O)N[C@H]1C[C@@H](CO)N(Cc2scnc2C)C1
2. Cc1cn2nnc(C(=O)N3CCC(C(=O)Nc4cccc(F)c4)CC3)c2c(=O)[nH]1
3. O=C(c1ccoc1)N1CCN(c2cc(C3CC3)ncn2)CC(O)C1 (stereo unspecified)

["inactive", "inactive", "inactive"]

Your task in this section: give outcome for each listed record.
1. Cc1noc(C)c1[S+](=O)([O-])N1CCc2nc(-c3ccccc3)nc(-c3ccc(Cl)cc3)c2C1
2. COc1ccc(CN2CCc3nc(N4CCN(C)CC4)[nH]c(=O)c3CC2)c(OC)c1OC
3. COC[C@@H]1CN(C(=O)Cc2c(C)noc2C)C[C@H]1c1ccccn1
4. O=C(c1n[nH]c2ccccc12)N1CC2CC(C1)[C@H]1CCCC(=O)N1C2 (stereo partly specified)
5. COCCCN(CCC(=O)NCc1ccc2c(c1)OCO2)C(=O)c1cc(C)oc1C

1. inactive
2. inactive
3. inactive
4. inactive
5. inactive

Give one value of outcome per listed compound.
1. Cc1cc(C(=O)N2CC(N(C(=O)NC(C)C)C3CCOCC3)C2)nn1C
2. O=C(Cc1ccsc1)Nc1ccc2c(N3CCCC3)ncnc2c1
3. COc1ccc(C(=O)N2CCC[C@H]2c2nc(-c3ccccc3)no2)cc1

["inactive", "inactive", "inactive"]
